# Test system: BIKE
# Construct: gene BMP2K
# testParameters: concentration: 1 μM, replicates: in singlicate; n = 1;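 also: KINOMEscan kinase panel screen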
Each item that follows carries a reported %Inh.
Write the numeric value and follow it with the unit.

The compound identified as COc1ccc(Nc2ncc(C#N)c(Nc3ccccc3C(N)=O)n2)cc1N1CCN(C)CC1.Cl [GSK1558669] registered its %Inh at 100%

The reported value for COc1ccc(S(=O)(=O)NC2CCN(c3cc(C)nc(Nc4cccc(C#N)c4)n3)CC2)cc1.O=C(O)C(F)(F)F [GSK1653539] in terms of %Inh is 5%

CN(C1=C(c2ccccc2)C(=O)NC1=O)c1ccccc1 [SB-334860] yielded %Inh of 0%

The compound listed as O=C(NCCCN1CCOCC1)c1cccc(Nc2nccc(Nc3ccc(Oc4ccccc4)cc3)n2)c1 [GW663929] has a reported %Inh of 27%

response.value for COc1cc2c(cc1OC[C@@H](O)CO)ncc1c3ccc(C#N)cc3[nH]c21 (field: %Inh) = 96.2%

====

Examples of compounds with documented %Inh follow.
# Test system: CLK2
# testParameters: concentration: 1 μM, replicates: in singlicate; n = 1
// note: answer is a bare numeric in %

Record excerpt, results attached:
| compound | measurementType | readoutValue |
| --- | --- | --- |
| Cc1nnc(-c2ccc3occ(-c4ccc(C(C)O)cc4)c3c2)o1 (centres unmarked) | %Inh | 2 |
| O=c1cc(N2CCOCC2)nc2n(Cc3cccc(C(F)(F)F)c3)ccn12 [GSK2297543] | %Inh | 20 |
| Fc1ccc(-c2nn3c(OCC(F)(F)F)cccc3c2-c2ccncc2)cc1 [GW514784] | %Inh | 0 |
| Cc1c(Cn2c(C)nn3c(=O)cc(N4CCOC(C)C4)nc23)cccc1C(F)(F)F (centres unmarked) [GSK2344444] | %Inh | 0 |
| Cc1ccc(C(=O)NCC(N)=O)cc1-n1c(C)cc(OCc2ccc(F)cc2F)c(Br)c1=O | %Inh | 0 |

The value of %Inh measured for the compound CN(C(=O)c1ccc(-c2cc(-c3c[nH]nc3-c3ccccn3)ccn2)cc1)C1CCOCC1 [GW810083] turned out to be 0

Value of measured %Inh for the entry O=C1NC(=O)C(N2CCc3ccccc32)=C1c1cccc(Cl)c1 [SB-408010] : 0

Lab book: %Inh of O=C(NOCC1CC1)c1ccc(F)c(F)c1Nc1ccc(I)cc1Cl noted as 3

====

# System: CAMK1
# testParameters: concentration: 1 μM, replicates: in singlicate; n = 1
measurementType: %Inh (%)
Answer in %, number only, no unit symbol.

Reference set, count: 3
| molecule | measurementType | unit | readoutValue |
| --- | --- | --- | --- |
| CN(C(=O)c1ccc(-c2cc(-c3c[nH]nc3-c3ccccn3)ccn2)cc1)C1CCOCC1 | %Inh | % | 0 |
| Cn1cc(-c2ccc3c(c2)CCN3C(=O)Cc2ccccc2Cl)c2c(N)ncnc21 | %Inh | % | 44 |
| COc1cc2c(cc1OCCN1CCN(C)CC1)ncc1c3ccc(C#N)cc3[nH]c21 | %Inh | % | 0 |

The reported value for O=C1Cc2cc(Nc3nc(NCc4cccc(S(=O)(=O)C(F)(F)F)c4)ncc3C(F)(F)F)ccc2N1 in terms of %Inh is 0

O=C(NCCCN1CCOCC1)c1cccc(Nc2nccc(Nc3ccc(Oc4ccccc4)cc3)n2)c1 has a reported %Inh of 55

For Cc1ccc(NC(=O)c2ccnc(N3CCN(C)CC3)c2)cc1-c1ccc(C(=O)NCC2CC2)cc1 the molecule record lists %Inh as 0

Please fill in: %Inh reported for COc1cc2c(cc1OC[C@@H](O)CO)ncc1c3ccc(C#N)cc3[nH]c21 = 0

// sample Fc1ccc(-c2nn3c(OCC(F)(F)F)cccc3c2-c2ccncc2)cc1 , its %Inh was 0

Looking up O=c1cc(N2CCOCC2)nc2n(Cc3cccc(C(F)(F)F)c3)ccn12 , I see its %Inh listed as 4

GET /value?item= COc1ccc(CNC(=O)NC2CCN(c3ccnc(Nc4ccc(OC)cc4)n3)C2)cc1 (stereo not drawn) &field=%Inh returns 18

// Cc1nnc(-c2ccc(C)c(-c3ccc(C(=O)Nc4ccc(NS(C)(=O)=O)cc4)cc3)c2)o1 : %Inh value = 4

Entry Nc1nccc(-c2c(-c3ccc(F)cc3)ncn2C2CCN(CC(F)(F)F)CC2)n1 ; %Inh = 0

molecule O=C(Nc1n[nH]c2cc(-c3cccc(F)c3)ccc12)C1CC1 , %Inh observed: 31

Field %Inh (entry Cn1ccc2ncnc(Oc3ccc(NC(=O)Nc4ccncc4)c(Cl)c3)c21 ) reads 0

Looking up Cc1cccc(-c2nc(-c3ccc(S(C)(=O)=O)cc3)sc2-c2ccncc2)c1 , I see its %Inh listed as 5
